- Tested on: COLO 205
- assay_protocol: NCI tumour cell line growth inhibition, 48 h
Calls of active or inactive are those of the source. Cut-off read from the data, not from the text of the source: active = GI50 up to about 1.1 µM and inactive = higher.
recorded_endpoint: GI50

// lookup GI50 for `CC(C)(C)NNC(=O)/C(=C/c1ccc(Oc2ccc(Cl)c(Cl)c2)cc1)NC(=O)c1ccccc1`
16.2 µM (inactive)

// lookup GI50 for `CCn1c(=O)nc2n(-c3ccc(SC)cc3)c3ccccc3nc-2c1=O`
8.15 µM (inactive)

// lookup GI50 for CC(Oc1ccc(Cl)cc1Cl)C(=O)NN1C(=O)CSC1c1ccccc1 (stereo not given)
> 100 µM (inactive)

// lookup GI50 for C=CCC(N(C)C(=O)[C@H](Cc1ccccc1)NC(=O)OCc1ccccc1)P(=O)(Oc1ccccc1)Oc1ccccc1 (stereo not given in full)
8.43 µM (inactive)

// lookup GI50 for `COc1cc2c(cc1-c1coc3cc(O)ccc3c1=O)OCO2`
> 100 µM (inactive)
